experiment summary: Cytotoxicity against patient-derived U3013MG cells assessed as reduction in cell viability after 48 hrs by Celltiter-Glo reagent based assay
Assay type: functional
test context: Homo sapiens
measurement type: IC50 (µM)
The reply should contain only the number, in µM.

// solved cases for IC50 follow
O[C@@H](c1cc(-c2ccc(Cl)cc2)nc2ccccc12)[C@@H]1CCCCN1 (single isomer, unassigned)	9.91
O[C@@H](c1cc(-c2ccc(Cl)cc2)nc2ccccc12)[C@H]1CCCCN1	3.46

Next item in the queue.
Exercise: Fill in: IC50 of O[C@H](c1cc(-c2ccc(C(F)(F)F)cc2)nc2ccccc12)[C@@H]1CCCCN1 (relative stereo) is ___
Key: 13.5

====

experiment summary: Ratio of drug level in NMRI mouse brain to plasma at 2 mg/kg, iv or 20 mg/kg, po administered as single dose through gavage measured up to 144 hrs post dose by UPLC-MS/MS analysis
Assay type: ADME, organism-based
test context: brain and plasma, read-out: BPR
measurement type: Kp at 144 h
Note: the reply should be a number with no unit written.

Exercise: Could you tell me which Kp at 144 h is on file for `O[C@H](c1cc(-c2ccc(Cl)cc2)nc2ccccc12)[C@@H]1CCCCN1` ?
Key: 2

====

experiment summary: Cytotoxicity against patient-derived U3013MG cells assessed as reduction in cell viability after 48 hrs by Celltiter-Glo reagent based assay
Assay type: functional
test context: Homo sapiens
Recorded pIC50 values for a group of compounds are listed next.
The scale used: pIC50 is minus the common logarithm of the concentration in molar units.

OC(c1cc(-c2ccsc2)nc2ccccc12)C1CCCCN1 (centres undefined)	4.58

Exercise: Which pIC50 value is on record for `O[C@H](c1cc(-c2ccc(Cl)cc2)nc2ccccc12)[C@@H]1CCCCN1` ?
Key: 5.42

Exercise: Item Cc1ccc(-c2cc([C@@H](O)[C@@H]3CCCCN3)c3ccccc3n2)cc1C#N (relative stereo) has what recorded pIC50?
Key: 4.49

Exercise: pIC50 for O[C@H](c1cc(-c2ccc(Cl)cc2)nc2ccccc12)[C@H]1CCCCN1 (single isomer, unassigned) ?
Key: 4.98

Exercise: Looking for the measured pIC50 of CCCN(CCC)C(=O)c1ccc(-c2cc([C@@H](O)[C@@H]3CCCCN3)c3ccccc3n2)cc1 (relative stereo) , can you help?
Key: 4.45

Exercise: Name the reported pIC50 value associated with the compound O[C@H](c1cc(-c2ccc(C(F)(F)F)nc2)nc2ccccc12)[C@@H]1CCCCN1 (relative stereo)
Key: 4.42

====

Collected half-life values appear next to each entry.
experiment summary: Half life in NMRI mouse brain at 2 mg/kg, iv administered as single dose by UPLC-MS/MS analysis
Assay type: ADME, organism-based
State just the number; it will be interpreted in h.

O[C@@H](c1cc(-c2ccc(Cl)cc2)nc2ccccc12)[C@H]1CCCCN1	67

Consider the additional molecule presented here.
Exercise: Any idea what its half-life is? The molecule is `O[C@H](c1cc(-c2ccc(Cl)cc2)nc2ccccc12)[C@@H]1CCCCN1`
Key: 72

====

experiment summary: AUClast in NMRI mouse brain at 20 mg/kg, po administered as single dose through gavage measured after 144 hrs by UPLC-MS/MS analysis
Format: ADME, organism-based
Design: dose 20 mg/kg, time < 144 hr, route oral
measurement type: AUC(0-t) at 144 h (µg·h/mL)
Give just the number in µg·h/mL; leave the unit off.

O[C@H](c1cc(-c2ccc(Cl)cc2)nc2ccccc12)[C@@H]1CCCCN1	400

Exercise: Give its AUC(0-t) at 144 h value. Item: `O[C@@H](c1cc(-c2ccc(Cl)cc2)nc2ccccc12)[C@H]1CCCCN1`
Key: 157

====

experiment summary: Cytotoxicity against patient-derived U3013MG cells assessed as reduction in cell viability after 48 hrs by Celltiter-Glo reagent based assay
Assay type: functional
test context: Homo sapiens
pIC50: −log10 of the molar value.
Measured pIC50 of individual entries

Solved entries (count: 2):
Cc1ccc(-c2cc(C(O)C3CCCCN3)c3ccccc3n2)o1 (stereo not drawn)	< 4.30
Cc1noc(C)c1-c1cc(C(O)C2CCCCN2)c2ccccc2n1 (stereo not drawn)	< 4.30

Next compound, please.
Exercise: Please report the recorded pIC50 for OC(c1cc(-c2ccncc2)nc2ccccc12)C1CCCCN1 (stereo not drawn) .
Key: < 4.30
